biological target: Protein mono-ADP-ribosyltransferase PARP14 (Homo sapiens)
Sequence (Q460N5 whole entry): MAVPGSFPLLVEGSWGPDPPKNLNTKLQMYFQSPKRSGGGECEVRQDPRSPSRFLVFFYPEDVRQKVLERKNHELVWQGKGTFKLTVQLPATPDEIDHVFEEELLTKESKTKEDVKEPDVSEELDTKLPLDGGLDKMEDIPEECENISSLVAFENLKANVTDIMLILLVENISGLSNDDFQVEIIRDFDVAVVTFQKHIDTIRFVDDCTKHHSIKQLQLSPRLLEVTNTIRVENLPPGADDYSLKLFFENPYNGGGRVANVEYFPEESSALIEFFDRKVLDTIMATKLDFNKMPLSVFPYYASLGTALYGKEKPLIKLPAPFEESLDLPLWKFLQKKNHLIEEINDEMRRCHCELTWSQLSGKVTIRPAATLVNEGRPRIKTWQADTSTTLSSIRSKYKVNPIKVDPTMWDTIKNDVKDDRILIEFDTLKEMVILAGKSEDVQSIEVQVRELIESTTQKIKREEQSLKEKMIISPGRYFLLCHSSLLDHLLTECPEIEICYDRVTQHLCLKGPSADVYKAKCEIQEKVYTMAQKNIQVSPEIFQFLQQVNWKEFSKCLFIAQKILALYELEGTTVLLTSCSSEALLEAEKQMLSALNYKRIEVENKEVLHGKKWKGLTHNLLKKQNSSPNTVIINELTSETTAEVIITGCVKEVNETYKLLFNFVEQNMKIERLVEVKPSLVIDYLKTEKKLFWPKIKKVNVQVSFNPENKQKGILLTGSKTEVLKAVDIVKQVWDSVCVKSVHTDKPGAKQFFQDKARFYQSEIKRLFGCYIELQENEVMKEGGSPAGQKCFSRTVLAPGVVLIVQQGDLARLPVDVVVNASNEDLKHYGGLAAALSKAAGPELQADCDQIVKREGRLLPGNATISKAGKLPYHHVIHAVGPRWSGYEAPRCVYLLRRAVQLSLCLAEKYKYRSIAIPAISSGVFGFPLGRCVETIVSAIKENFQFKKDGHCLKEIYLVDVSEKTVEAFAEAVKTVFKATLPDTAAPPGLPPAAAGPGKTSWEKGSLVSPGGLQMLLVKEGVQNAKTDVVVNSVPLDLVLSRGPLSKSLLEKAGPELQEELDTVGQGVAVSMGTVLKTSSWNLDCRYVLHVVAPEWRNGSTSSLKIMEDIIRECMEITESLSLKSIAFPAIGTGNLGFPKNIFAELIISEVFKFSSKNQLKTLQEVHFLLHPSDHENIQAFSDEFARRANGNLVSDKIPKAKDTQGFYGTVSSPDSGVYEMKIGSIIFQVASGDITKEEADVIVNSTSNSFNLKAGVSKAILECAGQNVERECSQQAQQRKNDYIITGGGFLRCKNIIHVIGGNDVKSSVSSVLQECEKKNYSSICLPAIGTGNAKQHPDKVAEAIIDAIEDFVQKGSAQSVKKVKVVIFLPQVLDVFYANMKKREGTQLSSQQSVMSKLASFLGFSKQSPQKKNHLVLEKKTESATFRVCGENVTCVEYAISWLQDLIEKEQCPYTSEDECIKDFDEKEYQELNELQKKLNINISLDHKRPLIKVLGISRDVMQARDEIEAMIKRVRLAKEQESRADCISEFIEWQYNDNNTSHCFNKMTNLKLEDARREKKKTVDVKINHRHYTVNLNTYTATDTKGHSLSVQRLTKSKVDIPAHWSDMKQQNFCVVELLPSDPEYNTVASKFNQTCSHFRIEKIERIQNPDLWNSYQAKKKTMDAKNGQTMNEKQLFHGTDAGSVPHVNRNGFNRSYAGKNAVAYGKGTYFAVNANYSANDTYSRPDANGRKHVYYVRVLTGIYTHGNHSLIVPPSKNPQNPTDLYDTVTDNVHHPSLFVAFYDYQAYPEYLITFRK
recordedMetric: IC50

Query NC(=O)c1ccc(Oc2ccc(C=O)cc2)cc1 on Protein mono-ADP-ribosyltransferase PARP14 (Homo sapiens); IC50 returned: > 10 µM

# value of IC50, Protein mono-ADP-ribosyltransferase PARP14 (Homo sapiens), item NC(=O)c1ccc(OCc2ccccc2F)cc1 = 10 µM

IC50 on Protein mono-ADP-ribosyltransferase PARP14 (Homo sapiens) for COc1ccc(C(N)=O)cc1 is > 10 µM

Protein mono-ADP-ribosyltransferase PARP14 (Homo sapiens) data for NC(=O)c1ccc(Oc2ccc(C(=O)O)cc2)cc1 ; its IC50: > 10 µM

###

biological target: Protein mono-ADP-ribosyltransferase PARP4 (Homo sapiens)
Sequence (Q9UKK3 whole entry): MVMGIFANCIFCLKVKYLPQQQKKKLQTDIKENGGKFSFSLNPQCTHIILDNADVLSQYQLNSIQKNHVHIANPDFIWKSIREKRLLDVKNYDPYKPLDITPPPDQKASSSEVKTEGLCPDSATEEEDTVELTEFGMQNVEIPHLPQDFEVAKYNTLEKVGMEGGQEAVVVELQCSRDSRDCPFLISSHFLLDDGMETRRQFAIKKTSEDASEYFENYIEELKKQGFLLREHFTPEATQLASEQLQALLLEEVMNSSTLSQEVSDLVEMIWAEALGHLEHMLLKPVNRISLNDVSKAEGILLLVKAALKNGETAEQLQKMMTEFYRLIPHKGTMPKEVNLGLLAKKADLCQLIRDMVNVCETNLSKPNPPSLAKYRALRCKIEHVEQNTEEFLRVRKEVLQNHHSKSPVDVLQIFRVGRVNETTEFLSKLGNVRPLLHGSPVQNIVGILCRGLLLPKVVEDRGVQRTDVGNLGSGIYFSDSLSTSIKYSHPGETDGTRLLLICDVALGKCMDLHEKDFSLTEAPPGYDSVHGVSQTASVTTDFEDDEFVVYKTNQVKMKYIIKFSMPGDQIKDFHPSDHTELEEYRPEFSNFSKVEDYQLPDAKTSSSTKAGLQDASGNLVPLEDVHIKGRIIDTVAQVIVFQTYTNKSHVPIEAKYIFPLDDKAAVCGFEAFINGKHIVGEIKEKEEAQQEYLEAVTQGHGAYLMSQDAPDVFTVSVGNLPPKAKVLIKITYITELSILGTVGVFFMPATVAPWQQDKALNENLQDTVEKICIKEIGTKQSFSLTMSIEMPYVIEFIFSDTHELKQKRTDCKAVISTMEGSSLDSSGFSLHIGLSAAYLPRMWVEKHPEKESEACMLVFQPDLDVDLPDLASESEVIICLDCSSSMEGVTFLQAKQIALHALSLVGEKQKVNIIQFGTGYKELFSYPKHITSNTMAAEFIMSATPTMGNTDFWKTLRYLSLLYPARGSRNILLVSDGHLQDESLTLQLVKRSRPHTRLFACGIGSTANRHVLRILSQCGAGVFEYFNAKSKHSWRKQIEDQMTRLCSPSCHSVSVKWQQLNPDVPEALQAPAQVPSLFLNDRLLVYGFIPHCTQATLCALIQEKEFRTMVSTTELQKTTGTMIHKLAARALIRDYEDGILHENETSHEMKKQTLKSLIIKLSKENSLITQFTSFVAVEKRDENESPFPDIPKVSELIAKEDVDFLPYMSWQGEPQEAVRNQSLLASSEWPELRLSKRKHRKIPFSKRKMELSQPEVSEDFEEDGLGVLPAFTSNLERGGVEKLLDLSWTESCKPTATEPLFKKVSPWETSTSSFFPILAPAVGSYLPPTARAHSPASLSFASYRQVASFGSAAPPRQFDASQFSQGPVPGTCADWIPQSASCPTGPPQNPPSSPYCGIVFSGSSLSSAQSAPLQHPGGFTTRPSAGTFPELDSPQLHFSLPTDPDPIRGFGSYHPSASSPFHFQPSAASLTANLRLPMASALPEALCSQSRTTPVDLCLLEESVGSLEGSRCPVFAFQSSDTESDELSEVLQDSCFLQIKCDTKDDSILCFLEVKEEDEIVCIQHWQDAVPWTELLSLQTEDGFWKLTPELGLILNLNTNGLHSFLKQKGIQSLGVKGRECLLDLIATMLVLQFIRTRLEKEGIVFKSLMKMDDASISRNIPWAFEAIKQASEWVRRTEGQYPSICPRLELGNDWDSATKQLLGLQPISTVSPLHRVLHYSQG
recordedMetric: IC50 (µM)
Report the value in µM with no unit label.

smilesRepresentation	displayUnit	IC50
COc1ccc(C(N)=O)cc1	µM	65

Reported IC50 ( NC(=O)c1ccc(Oc2ccc(C(N)=O)cc2)cc1 ) = 23

###

target: UniProt P09874; experiment: Inhibition of N-terminal His-tagged human ARTD1 (1 to 1014 residues) expressed in Escherichia coli Rosetta2 (DE3) using activated DNA as substrate after 1.5 hrs in presence of NAD+
Sequence (P09874 whole entry, the tested form may be a part): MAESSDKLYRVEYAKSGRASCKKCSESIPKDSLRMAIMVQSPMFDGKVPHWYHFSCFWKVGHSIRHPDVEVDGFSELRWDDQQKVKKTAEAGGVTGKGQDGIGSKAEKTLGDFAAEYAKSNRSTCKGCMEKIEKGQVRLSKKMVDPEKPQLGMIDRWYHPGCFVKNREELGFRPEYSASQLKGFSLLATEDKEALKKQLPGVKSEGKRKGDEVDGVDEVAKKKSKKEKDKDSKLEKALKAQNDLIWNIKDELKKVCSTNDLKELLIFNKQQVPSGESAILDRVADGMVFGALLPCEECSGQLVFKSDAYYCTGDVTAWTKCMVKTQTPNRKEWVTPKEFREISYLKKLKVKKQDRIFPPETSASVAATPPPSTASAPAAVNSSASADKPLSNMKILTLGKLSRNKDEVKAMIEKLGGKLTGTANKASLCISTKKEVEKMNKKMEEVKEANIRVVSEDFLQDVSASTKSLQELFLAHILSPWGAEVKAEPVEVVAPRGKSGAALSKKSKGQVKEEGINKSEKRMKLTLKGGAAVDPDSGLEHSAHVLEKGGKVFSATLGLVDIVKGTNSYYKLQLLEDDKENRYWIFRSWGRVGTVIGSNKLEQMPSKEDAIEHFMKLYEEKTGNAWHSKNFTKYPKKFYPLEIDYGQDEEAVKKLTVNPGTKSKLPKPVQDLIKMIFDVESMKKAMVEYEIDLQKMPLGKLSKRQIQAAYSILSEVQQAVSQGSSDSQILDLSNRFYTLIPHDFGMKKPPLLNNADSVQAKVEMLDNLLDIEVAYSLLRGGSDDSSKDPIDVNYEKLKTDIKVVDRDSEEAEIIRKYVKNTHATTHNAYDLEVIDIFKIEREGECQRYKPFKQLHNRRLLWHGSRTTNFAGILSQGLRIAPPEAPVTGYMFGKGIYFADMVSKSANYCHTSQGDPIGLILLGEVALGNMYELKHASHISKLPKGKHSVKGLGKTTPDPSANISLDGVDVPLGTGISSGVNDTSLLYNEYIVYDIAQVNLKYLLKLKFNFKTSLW
pIC50: −log10 of the molar value.
Entries and their pIC50 values follow.

smilesRepresentation	recordedMetric	recordedMeasurement
NC(=O)c1ccc(OCc2ccccc2F)cc1	pIC50	< 4.00
NC(=O)c1ccc(Oc2ccc(C(=O)O)cc2)cc1	pIC50	< 4.00
COc1ccc(C(N)=O)cc1	pIC50	4.24

Please look at the following compound next.
// pIC50 lookup, compound = NC(=O)c1ccc(Oc2ccc(C=O)cc2)cc1 , result: < 4.00

###

Listed below: IC50 values for each entry.
Molecular target: Protein mono-ADP-ribosyltransferase PARP3 (Homo sapiens, UniProt Q9Y6F1)
Sequence (Q9Y6F1 whole entry): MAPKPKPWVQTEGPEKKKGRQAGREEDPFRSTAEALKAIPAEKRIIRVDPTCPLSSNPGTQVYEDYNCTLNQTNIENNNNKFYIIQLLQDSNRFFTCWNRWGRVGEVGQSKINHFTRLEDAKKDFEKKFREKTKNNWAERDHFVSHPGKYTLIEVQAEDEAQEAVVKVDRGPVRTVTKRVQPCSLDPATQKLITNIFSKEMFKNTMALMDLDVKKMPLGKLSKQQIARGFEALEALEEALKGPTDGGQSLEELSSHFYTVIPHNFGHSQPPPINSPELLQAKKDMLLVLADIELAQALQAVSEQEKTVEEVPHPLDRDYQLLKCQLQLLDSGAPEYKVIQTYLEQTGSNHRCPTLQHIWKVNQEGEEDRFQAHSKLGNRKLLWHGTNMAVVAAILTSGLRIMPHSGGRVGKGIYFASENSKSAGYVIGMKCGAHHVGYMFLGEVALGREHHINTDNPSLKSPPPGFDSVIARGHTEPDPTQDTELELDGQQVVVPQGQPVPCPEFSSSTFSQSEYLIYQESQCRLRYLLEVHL

smilesRepresentation	recordedMeasurement
NC(=O)c1ccc(OCc2ccccc2F)cc1	> 100 µM
COc1ccc(C(N)=O)cc1	> 100 µM
NC(=O)c1ccc(Oc2ccc(C=O)cc2)cc1	86 µM

// field: IC50; key: NC(=O)c1ccc(Oc2ccc(C(=O)O)cc2)cc1 ; value = > 100 µM

###

Quick note: these are IC50 numbers for system: Protein mono-ADP-ribosyltransferase PARP4 (Homo sapiens)

Here's what some known entries look like.
smilesRepresentation	IC50
NC(=O)c1ccc(Oc2ccc(C=O)cc2)cc1	> 100 µM
NC(=O)c1ccc(OCc2ccccc2F)cc1	> 100 µM

Query compound follows.
The recorded IC50 with Protein mono-ADP-ribosyltransferase PARP4 (Homo sapiens) for NC(=O)c1ccc(Oc2ccc(C(=O)O)cc2)cc1 was > 100 µM

These data points were gathered from ChEMBL document CHEMBL4270552.
